# EXPERIMENT DESCRIPTION: pKa, log P and log D of 4-31 measured by Absorption Systems
# Type: physicochemical
# MEASUREMENT CONTEXT: pH 6.8; octanol/0.15 M KCl
QUANTITY NAME: logD
Numbers only.

Ask | For the molecule "Cc1cc(=O)[nH]c2c1C(=O)c1c(C)cc(=O)n(CC(C)C)c1C2=O" , what logD is on record?
Reply | 1.76

---

# EXPERIMENT DESCRIPTION: Solubility in organic solvents
# Assay type: physicochemical
# MEASUREMENT CONTEXT: organic solvent or mixture, thermodynamic from solid; 2:1 CH2Cl2:MeOH; Table 4.3; read-out: Solubility in 2:1 CH2Cl2:MeOH
Give measured log10 solubility for each item. Keep answers brief.
// units: mM (pre-log); metric: solubility; scale: log10

Example results:
>>> experimental_result("CCn1c2c(c(C)cc1=O)C(=O)c1c(C)cc(=O)[nH]c1C2=O [Compound 109]")
1.28
>>> experimental_result("Cc1cc(=O)[nH]c2c1C(=O)c1c(C)cc(=O)n(CC3CC3)c1C2=O [Compound 4-37]")
1.71
>>> experimental_result("CCc1cc(=O)[nH]c2c1C(=O)c1c(CC)cc(=O)n(C)c1C2=O [Compound 4-29]")
1.66
>>> experimental_result("CCCCn1c2c(c(CCC)cc1=O)C(=O)c1c(CCC)cc(=O)[nH]c1C2=O [Compound 4-28]")
1.81
>>> experimental_result("CCCc1cc(=O)n(C)c2c1C(=O)c1c(C)cc(=O)[nH]c1C2=O [Compound 4-9]")
1.26
>>> experimental_result("CCCCCCn1c2c(c(C)cc1=O)C(=O)c1c(C)cc(=O)[nH]c1C2=O [Compound 9-257]")
2.15
>>> experimental_result("CCc1cc(=O)n(C)c2c1C(=O)c1c(C)cc(=O)[nH]c1C2=O [Compound 107]")
1.57
>>> experimental_result("CCCCn1c2c(c(CCC)cc1=O)C(=O)c1c(C)cc(=O)[nH]c1C2=O [Compound 4-26]")
1.88

Go through the items and report each one's log10 solubility.
1. Cc1cc(=O)[nH]c2c1C(=O)c1c(C)cc(=O)n(C(C)C)c1C2=O [Compound 4-30]
2. CCCCn1c2c(c(C)cc1=O)C(=O)c1c(C)cc(=O)[nH]c1C2=O [Compound 4-22]
3. CCCn1c2c(c(C)cc1=O)C(=O)c1c(C)cc(=O)[nH]c1C2=O [Compound 10-41]

Reply |
1. 1.90
2. 1.48
3. 1.51

Go through the items and report each one's log10 solubility.
1. Cc1cc(=O)[nH]c2c1C(=O)c1c(C)cc(=O)n(CCC(C)(C)C)c1C2=O [Compound 9-251]
2. Cc1cc(=O)[nH]c2c1C(=O)c1c(C)cc(=O)n(CCC(C)C)c1C2=O [Compound 9-249]
3. Cc1cc(=O)[nH]c2c1C(=O)c1c(C)cc(=O)n(C)c1C2=O [DNQ, Deoxynyboquinone, reference compound]
4. CCCc1cc(=O)[nH]c2c1C(=O)c1c(C)cc(=O)n(C)c1C2=O [Compound 4-12]
5. CCc1cc(=O)[nH]c2c1C(=O)c1c(C)cc(=O)n(C)c1C2=O [Compound 4-11]
6. Cc1cc(=O)[nH]c2c1C(=O)c1c(C)cc(=O)n(C3CCCCCCC3)c1C2=O [Compound 4-39]

Reply |
1. 2.08
2. 1.76
3. 0.93
4. 1.00
5. 1.54
6. 1.66

---

# EXPERIMENT DESCRIPTION: Solubility in organic solvents
# Type: physicochemical
# MEASUREMENT CONTEXT: CH2Cl2; Table 4.3
QUANTITY NAME: Solubility in CH2Cl2 (mM)
One number for each entry, in mM.

Example results:
>>> experimental_result("CCCCn1c2c(c(C)cc1=O)C(=O)c1c(C)cc(=O)[nH]c1C2=O")
7.6
>>> experimental_result("Cc1cc(=O)[nH]c2c1C(=O)c1c(C)cc(=O)n(CCC(C)(C)C)c1C2=O")
31

Go through the items and report each one's Solubility in CH2Cl2.
1. CCn1c2c(c(C)cc1=O)C(=O)c1c(C)cc(=O)[nH]c1C2=O
2. CCCCn1c2c(c(CCC)cc1=O)C(=O)c1c(C)cc(=O)[nH]c1C2=O

Reply |
[9.5, 24]

---

Give measured solubility for each item. Keep answers brief.
# EXPERIMENT DESCRIPTION: Solubility in organic solvents
# Type: physicochemical
# MEASUREMENT CONTEXT: organic solvent or mixture, thermodynamic from solid; DMSO; Table 1; read-out: DMSO solubility
Mention the unit after the number when you answer.

>>> experimental_result("CCc1cc(=O)[nH]c2c1C(=O)c1c(C)cc(=O)n(C)c1C2=O")
"16 mM"
>>> experimental_result("Cc1cc(=O)[nH]c2c1C(=O)c1c(C)cc(=O)n(CC(C)C)c1C2=O")
"110 mM"
>>> experimental_result("CCCn1c2c(c(C)cc1=O)C(=O)c1c(C)cc(=O)[nH]c1C2=O")
"8.9 mM"
>>> experimental_result("CCCCn1c2c(c(C)cc1=O)C(=O)c1c(CCC)cc(=O)[nH]c1C2=O")
"10 mM"

Continue with the molecule presented below.
Ask | For the molecule Cc1cc(=O)[nH]c2c1C(=O)c1c(C)cc(=O)n(C)c1C2=O [DNQ, Deoxynyboquinone, reference compound] , what solubility is on record?
Reply | 3.1 mM

---

# EXPERIMENT DESCRIPTION: Solubility in organic solvents
# Format: physicochemical
# MEASUREMENT CONTEXT: organic solvent or mixture, thermodynamic from solid; THF; Table 1
Answer Criterion not met if solubility is under 9 mM, and Criterion met if it is 9 mM or more.

>>> qualitative_label("CCn1c2c(c(C)cc1=O)C(=O)c1c(C)cc(=O)[nH]c1C2=O")
"Criterion met"
>>> qualitative_label("Cc1cc(=O)[nH]c2c1C(=O)c1c(C)cc(=O)n(CCCO)c1C2=O")
"Criterion not met"
>>> qualitative_label("CCCCn1c2c(c(C)cc1=O)C(=O)c1c(C)cc(=O)[nH]c1C2=O")
"Criterion not met"
>>> qualitative_label("CCCCCn1c2c(c(C)cc1=O)C(=O)c1c(C)cc(=O)[nH]c1C2=O")
"Criterion met"
>>> qualitative_label("CCCCn1c2c(c(CCC)cc1=O)C(=O)c1c(C)cc(=O)[nH]c1C2=O")
"Criterion met"

Ask | Does the compound "Cc1cc(=O)[nH]c2c1C(=O)c1c(C)cc(=O)n(CC(C)(C)C)c1C2=O" have recorded solubility that is 9 mM or more?
Reply | Criterion met

Ask | Does the compound "CCCCn1c2c(c(C)cc1=O)C(=O)c1c(CCC)cc(=O)[nH]c1C2=O" have recorded solubility that is 9 mM or more?
Reply | Criterion met

Ask | Does the compound "CCCCn1c2c(c(CCC)cc1=O)C(=O)c1c(CCC)cc(=O)[nH]c1C2=O" have recorded solubility that is 9 mM or more?
Reply | Criterion met

Ask | Does the compound "Cc1cc(=O)[nH]c2c1C(=O)c1c(C)cc(=O)n(CC(C)C)c1C2=O" have recorded solubility that is 9 mM or more?
Reply | Criterion met

Ask | Does the compound "CCc1cc(=O)n(C)c2c1C(=O)c1c(C)cc(=O)[nH]c1C2=O" have recorded solubility that is 9 mM or more?
Reply | Criterion not met

---

Give measured pIC50 for each item. Keep answers brief.
# Test system: MCF-7 cells
# EXPERIMENT DESCRIPTION: Cytotoxicity to MCF-7 cells with or without 25 μM dicoumarol (sulforhodamine B assay)
# Format: cell-based, human
# MEASUREMENT CONTEXT: Homo sapiens, MCF7, Table 4.2; no DIC; ± s.e.; read-out: IC50 vs. MCF-7 cells
Give bare numbers, as −log10 of the molar value.

>>> experimental_result("CCCCCCn1c2c(c(C)cc1=O)C(=O)c1c(C)cc(=O)[nH]c1C2=O [Compound 9-257]")
6.54
>>> experimental_result("CCCCn1c2c(c(CCC)cc1=O)C(=O)c1c(CCC)cc(=O)[nH]c1C2=O [Compound 4-28]")
4.44
>>> experimental_result("Cc1cc(=O)[nH]c2c1C(=O)c1c(C)cc(=O)n(CC3CC3)c1C2=O [Compound 4-37]")
6.66

Go through the items and report each one's pIC50.
1. CCc1cc(=O)[nH]c2c1C(=O)c1c(CC)cc(=O)n(C)c1C2=O [Compound 4-29]
2. Cc1cc(=O)[nH]c2c1C(=O)c1c(C)cc(=O)n(CC(C)(C)C)c1C2=O [Compound 9-253]

Reply |
5.42
6.64

---

# EXPERIMENT DESCRIPTION: Aqueous solubility in pH 7.4 PBS by LC-MS
# Assay type: physicochemical
# MEASUREMENT CONTEXT: phosphate buffered saline, pH 7.4, aqueous buffer, thermodynamic from solid, PBS pH 7.4; Table 4.3
QUANTITY NAME: solubility at 30 min (µM)
Numbers only, in µM.

>>> experimental_result("Cc1cc(=O)[nH]c2c1C(=O)c1c(C)cc(=O)n(CC(C)C)c1C2=O")
115
>>> experimental_result("CCCn1c2c(c(C)cc1=O)C(=O)c1c(C)cc(=O)[nH]c1C2=O")
39
>>> experimental_result("CCn1c2c(c(C)cc1=O)C(=O)c1c(C)cc(=O)[nH]c1C2=O")
319
>>> experimental_result("Cc1cc(=O)[nH]c2c1C(=O)c1c(C)cc(=O)n(CCC(C)C)c1C2=O")
6
>>> experimental_result("CCCc1cc(=O)[nH]c2c1C(=O)c1c(C)cc(=O)n(C)c1C2=O")
35

Go through the items and report each one's solubility at 30 min.
1. CCc1cc(=O)[nH]c2c1C(=O)c1c(C)cc(=O)n(C)c1C2=O
2. Cc1cc(=O)[nH]c2c1C(=O)c1c(C)cc(=O)n(CCC(C)(C)C)c1C2=O

Reply |
1. 105
2. 7
